Recorded measurements of CC50, one per entry
Test system: HCT116 MTAP-deleted cell lines
ASSAY PROTOCOL: Cell viability assay (CellTiter-Glo, 7 days), HCT116 MTAP-deleted
Format: cell-based
CONDITION NOTES: Homo sapiens, HCT-116; cell viability, HCT116 MTAP-deleted; class symbols; read-out: CC50

# COMPOUND, SYSTEM UNDER TEST, CC50
data = [
    ("CC(=O)N(C)N(Cc1ccc(C(F)(F)F)cn1)C(=O)c1ccc2nc(N)n3cncc3c2c1 [Fa-1]", "HCT116 MTAP-deleted cell lines", "> 1000 nM"),
    ("C[C@@H]1C[C@@H]2Oc3cc(C(F)(F)F)c(F)cc3[C@@H]2N(C(=O)c2cc3c(cc2F)nc(N)c2cncn23)C1 [Ff-248]", "HCT116 MTAP-deleted cell lines", "< 100 nM"),
    ("Nc1nc2cc(F)c(C(=O)N3CCOCC3c3ccc(C(F)(F)F)cn3)cc2n2cncc12 (centres unmarked) [Ff-128]", "HCT116 MTAP-deleted cell lines", "< 100 nM"),
    ("CC(=O)N(C)N(Cc1ccc(OC(F)F)cc1F)C(=O)c1ccc2nc(N)c3cnc(C)n3c2c1 [Fc-2]", "HCT116 MTAP-deleted cell lines", "100 to 1000 nM"),
    ("CN(C(=O)c1cc2c(cn1)nc(N)c1cncn12)[C@@H]1COc2cc(C(F)(F)F)ccc21 [Ff-342]", "HCT116 MTAP-deleted cell lines", "< 100 nM"),
    ("Nc1nc2cc(F)c(C(=O)N3CCO[C@H]4Cc5cc(C(F)(F)F)ccc5[C@H]43)cc2n2cncc12 (single isomer, unassigned) [Ff-83]", "HCT116 MTAP-deleted cell lines", "100 to 1000 nM"),
    ("Nc1nc2cc(F)c(C(=O)N3CC4CC(C3)c3ccccc34)cc2n2cncc12 [Ff-62]", "HCT116 MTAP-deleted cell lines", "> 1000 nM"),
    ("C[C@@H]1CC2Cc3cc(C(F)(F)F)ccc3[C@@H]2N(C(=O)c2cc3c(cc2F)nc(N)c2cncn23)C1 (mixture of isomers) [Ff-320]", "HCT116 MTAP-deleted cell lines", "< 100 nM"),
]

---

Attribute: CC50
System: HCT116 MTAP-deleted cell lines
ASSAY PROTOCOL: Cell viability assay (CellTiter-Glo, 7 days), HCT116 MTAP-deleted
Assay type: cell-based
CONDITION NOTES: Homo sapiens, HCT-116; cell viability, HCT116 MTAP-deleted; class symbols; read-out: CC50

# COMPOUND, SYSTEM UNDER TEST, CC50
rows = [
    ("Nc1nc2ccc(C(=O)N(Cc3ccc(C(F)(F)F)cn3)N3CCOCC3)cc2c2cncn12", "HCT116 MTAP-deleted cell lines", "> 1000 nM"),
    ("Nc1nc2cc(F)c(C(=O)N3CCC[C@@H]4Oc5c(ccc(OC(F)(F)F)c5F)[C@@H]43)cc2n2cncc12", "HCT116 MTAP-deleted cell lines", "< 100 nM"),
    ("Nc1nc2cc(F)c(C(=O)N3CCC[C@@H]4Oc5nc(C(F)(F)F)ccc5[C@@H]43)cc2n2cncc12", "HCT116 MTAP-deleted cell lines", "< 100 nM"),
    ("Nc1nc2ccc(C(=O)N(Cc3ccc(-n4ccnc4)cc3Cl)C34CC(C3)C4)cc2n2cncc12", "HCT116 MTAP-deleted cell lines", "100 to 1000 nM"),
    ("CN(C(=O)c1cc2c(cc1F)nc(N)c1cncn12)[C@@H](c1ccc(OC(F)(F)F)cc1F)C(F)F", "HCT116 MTAP-deleted cell lines", "< 100 nM"),
    ("CN(C(=O)c1cc2c(cc1F)nc(N)c1cncn12)[C@@H]1COc2cc(-c3csc(C(F)F)n3)ccc21", "HCT116 MTAP-deleted cell lines", "< 100 nM"),
    ("Nc1nc2cc(F)c(C(=O)N3CC(F)(F)CC[C@@H]3c3ccc(C(F)(F)F)cn3)cc2n2cncc12 (single isomer, unassigned)", "HCT116 MTAP-deleted cell lines", "< 100 nM"),
]
